All values here come from ChEMBL document CHEMBL1201862.

Tested on: HOP-92
Test: NCI tumour cell line growth inhibition, 48 h
Calls of active or inactive are those of the source. Cut-off read from the data, not from the text of the source: active = GI50 up to about 1.1 µM and inactive = higher.
Please state which outcome applies, choosing from 1 = active, 0 = inactive

Record excerpt, results attached:
[
  {
    "compound": "CC(=O)OCC1OC(N2C(S)=C(C#N)C(c3ccco3)C(C(C)=O)=C2c2ccccc2)C(OC(C)=O)C(OC(C)=O)C1OC(C)=O (stereo not drawn)",
    "classification": 0
  },
  {
    "compound": "O=c1c2cc([N+](=O)[O-])ccc2n(Cc2ccccc2)n1Cc1ccccc1",
    "classification": 0
  },
  {
    "compound": "CC(=O)NNc1nc(C)c(C(=O)/C=C/c2ccc(N(C)C)cc2)s1",
    "classification": 0
  },
  {
    "compound": "CN(Cc1ccccc1)c1nc(=[N+](C)C)ss1",
    "classification": 0
  },
  {
    "compound": "CC(C)N1[C@@H]2CCCC[C@H]2N(C(C)C)[PH]1=O",
    "classification": 0
  },
  {
    "compound": "CCOC(=O)c1c(Cl)nc2ccccc2c1N=[N+]=[N-]",
    "classification": 0
  },
  {
    "compound": "COc1ccc(-n2c3c(c4c(CN(C)C)c(O)ccc42)C(=O)c2ccccc2C3=O)cc1",
    "classification": 0
  },
  {
    "compound": "NC(=O)CN(CC(N)=O)C(N)=O",
    "classification": 0
  },
  {
    "compound": "CC(=O)OCC1OC(N2C(c3ccccc3)=CC(c3ccco3)C(C#N)=C2S)C(OC(C)=O)C(OC(C)=O)C1OC(C)=O (stereo not drawn)",
    "classification": 0
  },
  {
    "compound": "C[C@H]1O[C@@H](O[C@H]2[C@@H](O)C[C@H](O[C@H]3[C@@H](O)C[C@H](O[C@H]4CC[C@@]5(C)[C@H](CC[C@@H]6[C@@H]5CC[C@]5(C)[C@@H](C7=CC(=O)OC7)[C@@H](O)C[C@]65O)C4)O[C@@H]3C)O[C@@H]2C)C[C@H](O)[C@@H]1O",
    "classification": 1
  }
]

In: I'd appreciate the recorded outcome for O=C(C1=C(C(=O)c2ccccc2)SC2(S1)C(C(=O)c1ccccc1)=C(C(=O)c1ccccc1)Sc1c2ssc1=O)c1ccccc1 from this test.
Out: 0

In: I'd appreciate the recorded outcome for COc1ccc(C[C@H]2COC(=O)[C@@H]2Cc2cccc(Br)c2)cc1OC from this test.
Out: 0

In: I'd appreciate the recorded outcome for c1ccc(CN2CCC(=NN3CCCCC3)CC2)cc1 from this test.
Out: 0

In: I'd appreciate the recorded outcome for COc1ccc2c(c1)CCc1cnn(C3OC(COC(C)=O)C(OC(C)=O)C(OC(C)=O)C3OC(C)=O)c1-2 (stereo not drawn) from this test.
Out: 0

In: I'd appreciate the recorded outcome for COc1cc(/C=C/C=C2\CCC/C(=C\C=C\c3ccc(O)c(OC)c3)C2=O)ccc1O from this test.
Out: 0

In: I'd appreciate the recorded outcome for N#CC1C[C@@H]2CC3(CCC2CN1C(=O)c1ccccc1)OCCO3 (stereo partly drawn) from this test.
Out: 0

In: I'd appreciate the recorded outcome for CN(C)CCc1c2c(nc3ccccc13)C(=O)c1cccnc1C2=O from this test.
Out: 0

In: I'd appreciate the recorded outcome for CC(=O)c1ccc(NC(=O)/C(CC(=O)/C=C/c2ccccc2)=N/NC(N)=S)cc1 from this test.
Out: 0

In: I'd appreciate the recorded outcome for Cc1nnc(-n2c(O)cc(=O)n(-c3ccccc3)c2=S)nc1/C=C/c1ccc(N(C)C)cc1 from this test.
Out: 0

In: I'd appreciate the recorded outcome for NC(CCc1nc(-c2cccc([N+](=O)[O-])c2)cs1)C(=O)O (stereo not drawn) from this test.
Out: 0

In: I'd appreciate the recorded outcome for CC(=O)OCC1OC(n2c(=O)n(-c3ccccc3)c(=O)c3ccccc32)C(OC(C)=O)C(OC(C)=O)C1OC(C)=O (stereo not drawn) from this test.
Out: 0

In: I'd appreciate the recorded outcome for O=C(c1ccco1)N(C(=S)N1CCN(c2ccccn2)CC1)C1CCCCC1 from this test.
Out: 0

In: I'd appreciate the recorded outcome for O=C1CCCC/C1=C/C=C/c1ccccc1 from this test.
Out: 0
